# System: C. difficile
# EXPERIMENTAL_DETAILS: agar dilution MIC assay of anaerobic bacteria
# Format: cell-based, Clostridium difficile
# CONDITION_DETAILS: Clostridioides difficile, C. difficile, Micromyx Number 3585, Table 1; read-out: MIC
# Protocol: Each compound was assayed against a panel of anaerobic bacteria in culture, consisting of Gram-positive organisms, such as Lactobacilli, Bifidobacteria, Clostridium spp., and Gram-negative bacteria, such as […] fragilis spp., according to guidelines of the Clinical and Laboratory Standards Institute (CLSI document M11-A7, CLSI, Wayne, Pa., 2007). […] The MIC in μg/ml was read per Clinical and Laboratory Standards Institute guidelines.
Listed below: MIC values for each entry.
REPORTED_METRIC: MIC (µg/mL)

1) CN[C@H](CC(C)C)C(=O)N[C@H]1C(=O)N[C@@H](CC(N)=O)C(=O)N[C@H]2C(=O)N[C@H]3C(=O)N[C@H](C(=O)N[C@H](C(=O)O)c4cc(O)cc(O)c4-c4cc3ccc4O)[C@H](O)c3ccc(c(Cl)c3)Oc3cc2cc(c3O[C@@H]2O[C@H](CO)[C@@H](O)[C@H](O)[C@H]2O[C@H]2C[C@](C)(N)[C@H](O)[C@H](C)O2)Oc2ccc(cc2Cl)[C@H]1O [vancomycin, reference compound]	0.5
2) CCc1cc(Nc2nc3ncn(CCCCCOC)c3c(=O)[nH]2)ccc1C [Compound 315C]	16
3) CCc1cc(Nc2cc(=O)n(CCCCO)c(=O)[nH]2)ccc1C [Compound 179E]	16

----------
# Tested on: C. difficile
# EXPERIMENTAL_DETAILS: agar dilution MIC assay of anaerobic bacteria
# Format: cell-based, Clostridium difficile
# CONDITION_DETAILS: Clostridioides difficile, C. difficile, Micromyx Number 3582, Table 1; read-out: MIC
# Protocol: Each compound was assayed against a panel of anaerobic bacteria in culture, consisting of Gram-positive organisms, such as Lactobacilli, Bifidobacteria, Clostridium spp., and Gram-negative bacteria, such as […] fragilis spp., according to guidelines of the Clinical and Laboratory Standards Institute (CLSI document M11-A7, CLSI, Wayne, Pa., 2007). […] The MIC in μg/ml was read per Clinical and Laboratory Standards Institute guidelines.
Listed below: MIC values for each entry.
REPORTED_METRIC: MIC (mg/L)

1. CCC[C@@H]1C[C@@H](C(=O)N[C@@H]([C@H]2O[C@H](SC)[C@H](O)[C@@H](O)[C@H]2O)[C@H](C)Cl)N(C)C1 [clindamycin, reference compound]	0.5
2. CN[C@H](CC(C)C)C(=O)N[C@H]1C(=O)N[C@@H](CC(N)=O)C(=O)N[C@H]2C(=O)N[C@H]3C(=O)N[C@H](C(=O)N[C@H](C(=O)O)c4cc(O)cc(O)c4-c4cc3ccc4O)[C@H](O)c3ccc(c(Cl)c3)Oc3cc2cc(c3O[C@@H]2O[C@H](CO)[C@@H](O)[C@H](O)[C@H]2O[C@H]2C[C@](C)(N)[C@H](O)[C@H](C)O2)Oc2ccc(cc2Cl)[C@H]1O [vancomycin, reference compound]	0.25
3. Cc1ncc([N+](=O)[O-])n1CCO [metronidazole, reference compound]	0.25
4. CC(C)C(=O)OCCCCCn1cnc2nc(NCc3ccc(Cl)c(Cl)c3)[nH]c(=O)c21 [Compound 332E]	16
5. CCc1cc(Nc2cc(=O)n(CCCCO)c(=O)[nH]2)ccc1C [Compound 179E]	16

----------
# Test system: C. difficile
# EXPERIMENTAL_DETAILS: agar dilution MIC assay of anaerobic bacteria
# Assay type: cell-based, Clostridium difficile
# CONDITION_DETAILS: Clostridioides difficile, C. diff., Strain no. 4381 (ATCC strain), Table 3; read-out: MIC
Listed below: MIC values for each entry.
REPORTED_METRIC: MIC (µg/mL)

1. O=c1[nH]c(NCc2ccc(Cl)c(Cl)c2)nc2ncn(CCCCCN3CCOCC3)c12 [Compound 359E]	2
2. Cc1ncc([N+](=O)[O-])n1CCO [metronidazole, reference compound]	0.5
3. O=c1[nH]c(NCc2ccc(Cl)c(Cl)c2)nc2ncn(CCOCCN3CCOCC3)c12 [Compound 360A]	8
4. Cl.O=c1cc(NCc2ccc(Cl)c(Cl)c2)[nH]c(=O)n1CCOCCN1CCOCC1 [Compound 240D]	8

----------
Listed below: MIC values for each entry.
# Tested on: C. difficile
# EXPERIMENTAL_DETAILS: agar dilution MIC assay of anaerobic bacteria
# Type: cell-based, Clostridium difficile
# CONDITION_DETAILS: Clostridioides difficile, C. diff. Strain no. 19680, Table 4; read-out: MIC
REPORTED_METRIC: MIC (µg/mL)

1. CN[C@H](CC(C)C)C(=O)N[C@H]1C(=O)N[C@@H](CC(N)=O)C(=O)N[C@H]2C(=O)N[C@H]3C(=O)N[C@H](C(=O)N[C@H](C(=O)O)c4cc(O)cc(O)c4-c4cc3ccc4O)[C@H](O)c3ccc(c(Cl)c3)Oc3cc2cc(c3O[C@@H]2O[C@H](CO)[C@@H](O)[C@H](O)[C@H]2O[C@H]2C[C@](C)(N)[C@H](O)[C@H](C)O2)Oc2ccc(cc2Cl)[C@H]1O [vancomycin, reference compound]	1
2. Cc1ncc([N+](=O)[O-])n1CCO [metronidazole, reference compound]	4
3. O=c1[nH]c(NCc2ccc(Cl)c(Cl)c2)nc2ncn(CCCCN3CCOCC3)c12 [Compound 258D]	4
4. O=c1[nH]c(NCc2ccc(Cl)c(Cl)c2)nc2ncn(CCCCCN3CCOCC3)c12 [Compound 359E]	8

----------
# Test system: L. casei
# EXPERIMENTAL_DETAILS: agar dilution MIC assay of anaerobic bacteria
# Format: cell-based, Lactobacillus casei
# CONDITION_DETAILS: Lacticaseibacillus casei, Micromyx Number 1722, Table 1
REPORTED_METRIC: MIC (µg/mL)

1. CCc1cc(Nc2cc(=O)n(CCCCO)c(=O)[nH]2)ccc1C [Compound 179E]	32
2. CCC[C@@H]1C[C@@H](C(=O)N[C@@H]([C@H]2O[C@H](SC)[C@H](O)[C@@H](O)[C@H]2O)[C@H](C)Cl)N(C)C1 [clindamycin, reference compound]	2
3. CCc1cc(Nc2nc3ncn(CCCCCOC)c3c(=O)[nH]2)ccc1C [Compound 315C]	32

----------
# System: L. casei
# EXPERIMENTAL_DETAILS: agar dilution MIC assay of anaerobic bacteria
# Type: cell-based, Lactobacillus casei
# CONDITION_DETAILS: Lacticaseibacillus casei, Micromyx Number 1722, Table 1
Listed below: MIC values for each entry.
REPORTED_METRIC: MIC

1. CN[C@H](CC(C)C)C(=O)N[C@H]1C(=O)N[C@@H](CC(N)=O)C(=O)N[C@H]2C(=O)N[C@H]3C(=O)N[C@H](C(=O)N[C@H](C(=O)O)c4cc(O)cc(O)c4-c4cc3ccc4O)[C@H](O)c3ccc(c(Cl)c3)Oc3cc2cc(c3O[C@@H]2O[C@H](CO)[C@@H](O)[C@H](O)[C@H]2O[C@H]2C[C@](C)(N)[C@H](O)[C@H](C)O2)Oc2ccc(cc2Cl)[C@H]1O [vancomycin, reference compound]	> 16 µg/mL
2. CC(C)C(=O)OCCCCCn1cnc2nc(NCc3ccc(Cl)c(Cl)c3)[nH]c(=O)c21 [Compound 332E]	> 32 µg/mL
3. Cc1ncc([N+](=O)[O-])n1CCO [metronidazole, reference compound]	> 16 µg/mL
